Recorded values, source ChEMBL document CHEMBL1156597.

Items are presented alongside their recorded GI50.
Tested on: LoVo
Assay: Cytotoxicity against human doxorubicin resistant LoVo cells after 48 hrs by SRB assay
Type: functional
Hi! Could you send only the number? It should be in nM, unit omitted.

[ask] Answer with reported GI50 of `C/C=C1\NC(=O)[C@H](Cc2ccc(Cl)cc2)NC(=O)[C@@H](C(C)C)NC(=O)[C@@H]([C@H](C)CC)NC(=O)[C@H](NC(=O)[C@H](NC(=O)[C@H](CCCN)NC(=O)[C@H]2CCCN2C(=O)[C@H](NC(=O)[C@@H](NC(=O)[C@@H](NC(=O)[C@H](NC(=O)CCCC(C)C)C(C)C)[C@@H](C)O)C(C)C)C(C)C)[C@H](C)CC)[C@H](C)OC(=O)[C@H](C(C)C)NC1=O`
[reply] 57.1

[ask] Give GI50 for `C/C=C1\NC(=O)[C@H](Cc2ccccc2)NC(=O)[C@@H](C(C)C)NC(=O)[C@@H]([C@@H](C)CC)NC(=O)[C@H](NC(=O)[C@H](NC(=O)[C@H](CCCN)NC(=O)[C@H]2CCCN2C(=O)[C@H](NC(=O)[C@@H](NC(=O)[C@@H](NC(=O)[C@H](NC(=O)CCCC(C)C)[C@@H](C)O)[C@@H](C)O)C(C)C)C(C)C)[C@@H](C)CC)[C@@H](C)OC(=O)[C@H](C(C)C)NC1=O`
[reply] 325

[ask] Fill in GI50 for record `C/C=C1\NC(=O)[C@H](Cc2ccccc2)NC(=O)[C@@H](C(C)C)NC(=O)[C@@H]([C@H](C)CC)NC(=O)[C@H](NC(=O)[C@H](NC(=O)[C@H](CCCN)NC(=O)[C@H]2CCCN2C(=O)[C@H](NC(=O)[C@@H](NC(=O)[C@H](Cc2ccccc2)NC(=O)[C@H](NC(=O)CCCC(C)C)C(C)C)C(C)C)C(C)C)[C@H](C)CC)[C@H](C)OC(=O)[C@H](C(C)C)NC1=O`
[reply] 380

[ask] Give recorded GI50. C/C=C1\NC(=O)[C@H](Cc2ccccc2)NC(=O)[C@@H](C(C)C)NC(=O)[C@@H]([C@H](C)CC)NC(=O)[C@H](NC(=O)[C@H](NC(=O)[C@H](CCCN)NC(=O)[C@H]2CCCN2C(=O)[C@H](NC(=O)[C@@H](NC(=O)[C@@H](NC(=O)[C@H](NC(=O)C2CCC(C)CC2)C(C)C)[C@@H](C)O)C(C)C)C(C)C)[C@H](C)CC)[C@H](C)OC(=O)[C@H](C(C)C)NC1=O (stereo not given in full)
[reply] 340

Now for a further molecule.
[ask] Give a short answer stating reported GI50 for `C/C=C1\NC(=O)[C@H](Cc2ccc(I)cc2)NC(=O)[C@@H](C(C)C)NC(=O)[C@@H]([C@H](C)CC)NC(=O)[C@H](NC(=O)[C@H](NC(=O)[C@H](CCCN)NC(=O)[C@H]2CCCN2C(=O)[C@H](NC(=O)[C@@H](NC(=O)[C@@H](NC(=O)[C@H](NC(=O)CC[C@@H](C)CC)C(C)C)[C@@H](C)O)C(C)C)C(C)C)[C@H](C)CC)[C@H](C)OC(=O)[C@H](C(C)C)NC1=O` .
[reply] 134
